biological target: RORc ligand binding domain (Homo sapiens, UniProt P51449); construct: host or cells: E. coli; assay: In Vitro RORc Ligand Binding Assay (25-[3H]hydroxycholesterol radioligand filtration); details: In Vitro RORc Ligand Binding Assay; Table 4; read-out: RORc IC50
Sequence (P51449 269-508 limits assumed, species assumed): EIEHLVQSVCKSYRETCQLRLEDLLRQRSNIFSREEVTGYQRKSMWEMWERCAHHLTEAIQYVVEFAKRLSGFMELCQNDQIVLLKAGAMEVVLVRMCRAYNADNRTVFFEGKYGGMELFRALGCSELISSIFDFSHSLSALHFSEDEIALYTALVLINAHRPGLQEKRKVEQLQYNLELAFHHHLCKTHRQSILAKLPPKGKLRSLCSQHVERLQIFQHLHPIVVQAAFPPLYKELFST
outcome measure: IC50 (µM)

CC(=O)N1CCN(c2ccc(CN3[C@H](C)CCC(c4ccccc4)S3(=O)=O)c(F)c2)CC1 (single isomer, unassigned) [Example 19] | 2.8
CC(=O)N1CCN(c2ccc(CN3[C@H](C)COCC(c4ccccc4)S3(=O)=O)c(F)c2)CC1 (single isomer, unassigned) [Example 26] | 2
C[C@H]1CCC(c2ccccc2)S(=O)(=O)N1Cc1ccc(C(=O)N2CCS(=O)(=O)CC2)cc1 (stereo partly shown) | 5.71

A = C[C@H]1CCC(c2ccccc2)S(=O)(=O)N1Cc1ccc(C(=O)NC2CCCC(O)C2)cc1 (stereo partly shown)
B = CC(=O)N1CCN(c2ccc(CN3[C@@H](C)CCC(c4ccccc4Cl)S3(=O)=O)c(F)c2)CC1 (single isomer, unassigned)
C = CC(=O)N1CCN(c2ccc(CN3CCOCC(c4ccccc4)S3(=O)=O)c(F)c2)CC1 (single isomer, unassigned) [Example 23]
D = C[C@H]1CCC(c2ccccc2)S(=O)(=O)N1Cc1ccc(C(=O)N2CCC3(CC2)COC3)cc1 (stereo partly shown)
Let's sort these by IC50, smallest first. Go ahead? Would you mind listing the labels in the order asked for?
C, B, D, A
(C: 0.045 µM, B: 0.183 µM, D: 0.903 µM, A: 5.47 µM)
